SUBJECT OF TEST: Human immunodeficiency virus type 1 protease (Human immunodeficiency virus 1) (UniProt Q72874)
PROTOCOL NOTES: Inhibitory activity against HIV protease at a concentration of 5 uM
inhibition of 10% or higher: Y. Under 10%: N.

[
  {
    "COMPOUND": "CC(C(=O)O)C(C)C(=O)N[C@@H](Cc1ccccc1)[C@H](O)C(=O)N1CSC(C)(C)[C@H]1C(=O)NC(C)(C)C (stereo partly specified)",
    "LABEL": "Y"
  },
  {
    "COMPOUND": "Cc1ccccc1CNC(=O)[C@@H]1CSCN1C(=O)[C@@H](O)[C@H](Cc1ccccc1)NC(=O)CC(C)(C)C(=O)OCC1OC(n2cc(C)c(=O)[nH]c2=O)CC1N=[N+]=[N-] (stereo partly specified)",
    "LABEL": "Y"
  },
  {
    "COMPOUND": "Cc1cn(C2CC(N=[N+]=[N-])C(COC(=O)CCC(=O)N[C@@H](Cc3ccccc3)[C@H](O)C(=O)N3CSC[C@H]3C(=O)NC(C)(C)C)O2)c(=O)[nH]c1=O (stereo partly specified)",
    "LABEL": "Y"
  },
  {
    "COMPOUND": "Cc1cn(C2CC(N=[N+]=[N-])C(COC(=O)C(C)(C)CC(=O)N[C@@H](Cc3ccccc3)[C@H](O)C(=O)N3CSC[C@H]3C(=O)NC(C)(C)C)O2)c(=O)[nH]c1=O (stereo partly specified)",
    "LABEL": "N"
  },
  {
    "COMPOUND": "CC(C(=O)O)C(C)C(=O)N[C@@H](Cc1ccccc1)[C@H](O)C(=O)N1CSC[C@H]1C(=O)NC(C)(C)C (stereo partly specified)",
    "LABEL": "Y"
  },
  {
    "COMPOUND": "CC(C)(C)NC(=O)[C@H]1N(C(=O)[C@@H](O)[C@H](Cc2ccccc2)NC(=O)CC(C)(C)C(=O)O)CSC1(C)C",
    "LABEL": "Y"
  }
]

* * *

Some compounds, each annotated with its measured EC50.
System: CEM-SS
PROTOCOL NOTES: Inhibitory activity against HIV-1 IIIB in CEM-SS infected cells
Type: functional, cell-based
STATED CONDITIONS: Homo sapiens
RECORDED METRIC: EC50 (nM)

[
  {
    "COMPOUND": "Cc1cn(C2CC(N=[N+]=[N-])C(COC(=O)C(C)(C)CC(=O)N[C@@H](Cc3ccccc3)[C@H](O)C(=O)N3CSC(C)(C)[C@H]3C(=O)NC(C)(C)C)O2)c(=O)[nH]c1=O (stereo not given in full)",
    "SUBJECT OF TEST": "CEM-SS",
    "RECORDED METRIC": "EC50",
    "ASSAY RESULT": 19
  },
  {
    "COMPOUND": "Cc1ccccc1CNC(=O)[C@H]1N(C(=O)[C@@H](O)[C@H](Cc2ccccc2)NC(=O)CC(C)(C)C(=O)OCC2OC(n3cc(C)c(=O)[nH]c3=O)CC2N=[N+]=[N-])CSC1(C)C (stereo not given in full)",
    "SUBJECT OF TEST": "CEM-SS",
    "RECORDED METRIC": "EC50",
    "ASSAY RESULT": 0.24
  },
  {
    "COMPOUND": "CSC[C@H](NC(=O)COc1cccc2cnccc12)C(=O)N[C@@H](Cc1ccccc1)[C@H](O)C(=O)N1CSC[C@H]1C(=O)NC(C)(C)C",
    "SUBJECT OF TEST": "CEM-SS",
    "RECORDED METRIC": "EC50",
    "ASSAY RESULT": 40
  },
  {
    "COMPOUND": "Cc1cn(C2CC(N=[N+]=[N-])C(COC(=O)C(C)C(C)C(=O)N[C@@H](Cc3ccccc3)[C@H](O)C(=O)N3CSC(C)(C)[C@H]3C(=O)NC(C)(C)C)O2)c(=O)[nH]c1=O (stereo not given in full)",
    "SUBJECT OF TEST": "CEM-SS",
    "RECORDED METRIC": "EC50",
    "ASSAY RESULT": 90
  },
  {
    "COMPOUND": "Cc1ccccc1CNC(=O)[C@H]1N(C(=O)[C@@H](O)[C@H](Cc2ccccc2)NC(=O)C(C)C(C)C(=O)OCC2OC(n3cc(C)c(=O)[nH]c3=O)CC2N=[N+]=[N-])CSC1(C)C (stereo not given in full)",
    "SUBJECT OF TEST": "CEM-SS",
    "RECORDED METRIC": "EC50",
    "ASSAY RESULT": 7.3
  },
  {
    "COMPOUND": "Cc1cn(C2CC(N=[N+]=[N-])C(COC(=O)C(C)C(C)C(=O)N[C@@H](Cc3ccccc3)[C@H](O)C(=O)N3CSC[C@H]3C(=O)NC(C)(C)C)O2)c(=O)[nH]c1=O (stereo not given in full)",
    "SUBJECT OF TEST": "CEM-SS",
    "RECORDED METRIC": "EC50",
    "ASSAY RESULT": 27
  },
  {
    "COMPOUND": "Cc1cn(C2CC(N=[N+]=[N-])C(COC(=O)C(C)(C)CC(=O)N[C@@H](Cc3ccccc3)[C@H](O)C(=O)N3CSC[C@H]3C(=O)NC(C)(C)C)O2)c(=O)[nH]c1=O (stereo not given in full)",
    "SUBJECT OF TEST": "CEM-SS",
    "RECORDED METRIC": "EC50",
    "ASSAY RESULT": 27
  },
  {
    "COMPOUND": "Cc1cn(C2CC(N=[N+]=[N-])C(COC(=O)CCC(=O)N[C@@H](Cc3ccccc3)[C@H](O)C(=O)N3CSC[C@H]3C(=O)NC(C)(C)C)O2)c(=O)[nH]c1=O (stereo not given in full)",
    "SUBJECT OF TEST": "CEM-SS",
    "RECORDED METRIC": "EC50",
    "ASSAY RESULT": 42
  },
  {
    "COMPOUND": "Cc1ccccc1CNC(=O)[C@@H]1CSCN1C(=O)[C@@H](O)[C@H](Cc1ccccc1)NC(=O)C(C)C(C)C(=O)OCC1OC(n2cc(C)c(=O)[nH]c2=O)CC1N=[N+]=[N-] (stereo not given in full)",
    "SUBJECT OF TEST": "CEM-SS",
    "RECORDED METRIC": "EC50",
    "ASSAY RESULT": 8.9
  },
  {
    "COMPOUND": "Cc1ccccc1CNC(=O)[C@@H]1CSCN1C(=O)[C@@H](O)[C@H](Cc1ccccc1)NC(=O)CC(C)(C)C(=O)OCC1OC(n2cc(C)c(=O)[nH]c2=O)CC1N=[N+]=[N-] (stereo not given in full)",
    "SUBJECT OF TEST": "CEM-SS",
    "RECORDED METRIC": "EC50",
    "ASSAY RESULT": 3.8
  }
]

* * *

SUBJECT OF TEST: Human immunodeficiency virus type 1 protease (Human immunodeficiency virus 1) (UniProt Q72874)
PROTOCOL NOTES: Inhibitory activity against HIV protease at a concentration of 50 uM
Some compounds, each annotated with its measured inhibition.

[
  {
    "COMPOUND": "CC(C)(C)NC(=O)[C@@H]1CSCN1C(=O)[C@@H](O)[C@H](Cc1ccccc1)NC(=O)CC(C)(C)C(=O)O",
    "inhibition, %": 20
  },
  {
    "COMPOUND": "Cc1ccccc1CNC(=O)[C@H]1N(C(=O)[C@@H](O)[C@H](Cc2ccccc2)NC(=O)C(C)C(C)C(=O)O)CSC1(C)C (some centres not stated)",
    "inhibition, %": 76
  },
  {
    "COMPOUND": "CC(C)(C)NC(=O)[C@H]1N(C(=O)[C@@H](O)[C@H](Cc2ccccc2)NC(=O)CC(C)(C)C(=O)O)CSC1(C)C",
    "inhibition, %": 76
  },
  {
    "COMPOUND": "CC(C(=O)O)C(C)C(=O)N[C@@H](Cc1ccccc1)[C@H](O)C(=O)N1CSC[C@H]1C(=O)NC(C)(C)C (some centres not stated)",
    "inhibition, %": 32
  },
  {
    "COMPOUND": "Cc1ccccc1CNC(=O)[C@H]1N(C(=O)[C@@H](O)[C@H](Cc2ccccc2)NC(=O)CC(C)(C)C(=O)O)CSC1(C)C",
    "inhibition, %": 78
  },
  {
    "COMPOUND": "CC(C(=O)O)C(C)C(=O)N[C@@H](Cc1ccccc1)[C@H](O)C(=O)N1CSC(C)(C)[C@H]1C(=O)NC(C)(C)C (some centres not stated)",
    "inhibition, %": 78
  },
  {
    "COMPOUND": "Cc1ccccc1CNC(=O)[C@H]1N(C(=O)[C@@H](O)[C@H](Cc2ccccc2)NC(=O)C(C)C(C)C(=O)OCC2OC(n3cc(C)c(=O)[nH]c3=O)CC2N=[N+]=[N-])CSC1(C)C (some centres not stated)",
    "inhibition, %": 39
  }
]
